Provenance of the data: ChEMBL document CHEMBL4002601

Target: Dual specificity protein kinase CLK1 (Homo sapiens)
Assay: Inhibition of CLK mediated SF3B1 activation in human SK-MEL-2 cells assessed as MDM2-pre mRNA exon skipping at 10 uM after 4 hrs by luciferase reporter gene assay relative to control
Assay type: cell-based
Sequence (P49759 whole entry, looked up): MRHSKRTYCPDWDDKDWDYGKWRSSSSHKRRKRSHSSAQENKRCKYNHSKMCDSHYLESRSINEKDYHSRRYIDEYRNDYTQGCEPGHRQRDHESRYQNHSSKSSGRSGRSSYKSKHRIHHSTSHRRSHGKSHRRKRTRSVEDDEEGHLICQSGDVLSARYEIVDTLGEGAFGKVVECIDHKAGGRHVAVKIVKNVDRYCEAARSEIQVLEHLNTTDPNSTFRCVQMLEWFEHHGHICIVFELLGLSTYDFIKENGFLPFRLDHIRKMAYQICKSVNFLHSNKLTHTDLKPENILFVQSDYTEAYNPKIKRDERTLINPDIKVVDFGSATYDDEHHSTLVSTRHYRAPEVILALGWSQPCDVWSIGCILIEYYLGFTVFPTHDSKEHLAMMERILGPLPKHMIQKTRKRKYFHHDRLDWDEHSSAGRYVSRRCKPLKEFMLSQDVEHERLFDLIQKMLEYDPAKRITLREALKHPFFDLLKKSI
Design: scale not given: the % may be the effect or the level left
// values below are reported Activity
Express the result in % but write the number alone.

These solved cases illustrate the format of a correct answer.
- C#CCCCCCCCCCCC(=O)CC(O)COC(C)=O (stereo unspecified): 14
- CC1=Nc2ccc(Cl)cc2S(=O)(=O)N1: 11
- O=C(O)COc1ccc(Cl)cc1Cl: 21
- COc1ccc2c(c1)/C(=C/c1cnc[nH]1)C(=O)N2: 53
- CC(=O)Oc1ccc(/C=C/c2cc(OC(C)=O)cc(OC(C)=O)c2)cc1: 17

// query Name the recorded Activity for Clc1cccc(Nc2nnc(-c3ccccc3)c3ccccc23)c1 .
// result 11

----------
// values below are pIC50; system is Dual specificity protein kinase CLK1 (Homo sapiens, UniProt P49759)
Conceptually, pIC50 converts a concentration in mol/L into minus its log10.

- CC(=O)Nc1cc(Cl)cc(Nc2nc(N[C@@H]3CCCC[C@@H]3N)nc3c2ncn3C(C)C)c1 (racemic): 7.72

// query # get_value(readout= pIC50, system= Dual specificity protein kinase CLK1 (Homo sapiens, UniProt P49759)) for CCn1cnc2c(Nc3cccc(Cl)c3)nc(N[C@@H]3CCCC[C@@H]3N)nc21 (racemic)
// result 6.83

// query What is its pIC50 for Dual specificity protein kinase CLK1 (Homo sapiens, UniProt P49759)? Entry: CC(C)n1cnc2c(Nc3cc(N)cc(Cl)c3)nc(N[C@@H]3CCCC[C@@H]3N)nc21 (racemic)
// result 7.74

----------
Target: Dual specificity protein kinase CLK1 (Homo sapiens)
Experiment: Inhibition of CLK mediated SF3B1 activation in human HeLa cells assessed as MDM2-pre mRNA exon skipping by luciferase reporter gene assay
Format: cell-based
Sequence (P49759 whole entry): as the sequence (P49759 whole entry, looked up) above
measurement.label: pEC50
Keep in mind that pEC50 stands for -log10 of concentration in molar terms.

// query Would you mind telling me what pEC50 value was observed for COc1ccc2c(C)nc(Nc3nc(C)c(C)c(=O)[nH]3)nc2c1 ?
// result 4.70

----------
Target: Dual specificity protein kinase CLK1 (Homo sapiens)
Test: Inhibition of CLK mediated SF3B1 activation in human SK-MEL-2 cells assessed as MDM2-pre mRNA exon skipping after 4 hrs by luciferase reporter gene assay relative to control
Assay type: cell-based
Conditions: read-out: EC50
measurement.label: EC50 (µM)
Please reply with the bare figure in µM and do not write the unit itself.

Would you please look over these solved cases?
- CC(C)n1cnc2c(Nc3cc(N)cc(Cl)c3)nc(N[C@@H]3CCCC[C@@H]3N)nc21: 3
- CC(C)n1cnc2c(Nc3cc(N)cc(Cl)c3)nc(N[C@H]3CCNC3)nc21: 12

We next turn to a different compound, shown below.
// query Look up EC50 for this compound: CC(C)n1cnc2c(Nc3cc(N)cc(Cl)c3)nc(N[C@H]3CCCC[C@@H]3N)nc21
// result 23.5

----------
Attribute: pIC50
Target: CDK4/Cyclin D3 (Homo sapiens, UniProt P11802)
Sequence (P11802 whole entry): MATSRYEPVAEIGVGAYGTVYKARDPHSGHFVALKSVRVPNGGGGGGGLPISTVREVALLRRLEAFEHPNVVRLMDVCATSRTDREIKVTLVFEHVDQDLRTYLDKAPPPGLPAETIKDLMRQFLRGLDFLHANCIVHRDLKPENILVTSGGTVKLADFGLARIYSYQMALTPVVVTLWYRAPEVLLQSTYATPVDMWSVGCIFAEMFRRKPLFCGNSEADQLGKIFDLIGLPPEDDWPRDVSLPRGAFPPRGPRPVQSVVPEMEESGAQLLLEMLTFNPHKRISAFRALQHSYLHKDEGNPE
Sequence (P30281 whole entry, further chain): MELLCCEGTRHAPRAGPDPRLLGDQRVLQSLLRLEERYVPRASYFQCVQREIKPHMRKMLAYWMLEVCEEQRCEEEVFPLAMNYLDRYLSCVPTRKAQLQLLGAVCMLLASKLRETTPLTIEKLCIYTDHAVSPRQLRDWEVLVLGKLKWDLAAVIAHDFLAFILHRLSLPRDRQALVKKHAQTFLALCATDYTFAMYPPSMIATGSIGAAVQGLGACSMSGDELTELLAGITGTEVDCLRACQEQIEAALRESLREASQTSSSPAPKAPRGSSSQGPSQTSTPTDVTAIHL
Assay: Inhibition of human CDK4/cyclinD3 using Histone H1 as substrate in presence of [gamma-33P]ATP after 40 mins by scintillation counter method
Hey, just a heads up that pIC50 is the negative log base 10 of the concentration in molar.

- CCn1cnc2c(Nc3cccc(Cl)c3)nc(N[C@@H]3CCCC[C@@H]3N)nc21 (racemic): 6.24
- CC(C)n1cnc2c(Nc3cccc(Cl)c3)nc(N[C@@H]3CCCC[C@@H]3N)nc21: 6.27

Kindly review the next compound as well.
// query Provide the documented pIC50 with CDK4/Cyclin D3 (Homo sapiens, UniProt P11802) as the system for CC(=O)Nc1cc(Cl)cc(Nc2nc(N[C@@H]3CCCC[C@@H]3N)nc3c2ncn3C(C)C)c1 (racemic)
// result 6.03

----------
Biological target: CDK4/Cyclin D3 (Homo sapiens, UniProt P11802+P30281)
Assay: Inhibition of human CDK4/cyclinD3 using Histone H1 as substrate in presence of [gamma-33P]ATP after 40 mins by scintillation counter method
Format: protein-complex assay
measurement.label: IC50

// query Dear colleague, I am looking for the recorded IC50 of the following compound: CC(C)n1cnc2c(Nc3cc(N)cc(Cl)c3)nc(N[C@@H]3CCCC[C@@H]3N)nc21
// result > 1000 nM

----------
Target: Dual specificity protein kinase CLK1 (Homo sapiens)
Assay: Inhibition of CLK mediated SF3B1 activation in human SK-MEL-2 cells assessed as MDM2-pre mRNA exon skipping after 4 hrs by luciferase reporter gene assay relative to control
Format: cell-based
Details: read-out: EC50
pEC50: −log10 of the molar value.
So basically: pEC50 at 5 or higher? That is class 1. Lower than 5? That is class 0.

# count of solved cases: 3
- CC(C)n1cnc2c(Nc3cccc(Cl)c3)nc(N[C@@H]3CCCC[C@H]3N)nc21: class 1
- CCn1cnc2c(Nc3cccc(Cl)c3)nc(N[C@H]3CCCC[C@@H]3N)nc21: class 0
- CNC(=O)O[C@@H](C)/C=C\C(=O)N[C@H]1CC[C@@H](C/C=C(C)/C=C/[C@@H]2C[C@]3(CO3)CC(C)(C)O2)CC1: class 1

Switching to the query record.
// query Could you verify whether the entry CC(C)n1cnc2c(Nc3cccc(Cl)c3)nc(N[C@@H]3CCCC[C@@H]3N)nc21 shows pEC50 of no less than 5?
// result class 1

----------
Biological target: Dual specificity protein kinase CLK1 (Homo sapiens, UniProt P49759)
Assay: Inhibition of CLK mediated SF3B1 activation in human SK-MEL-2 cells assessed as MDM2-pre mRNA exon skipping after 4 hrs by luciferase reporter gene assay relative to control
Assay type: cell-based
Conditions: read-out: EC50
pEC50: −log10 of the molar value.
// label = True if pEC50 is not less than 5, otherwise False

Would you please look over these solved cases?
• CC(C)n1cnc2c(Nc3cc(N)cc(Cl)c3)nc(N[C@H]3CCCC[C@H]3N)nc21 = False
• CC(C)n1cnc2c(Nc3cc(N)cc(Cl)c3)nc(N[C@@H]3CCCC[C@@H]3N)nc21 (racemic) = True
• CCn1cnc2c(Nc3cccc(Cl)c3)nc(N[C@@H]3CCCC[C@@H]3N)nc21 (racemic) = True
• CC(C)n1cnc2c(Nc3cc(N)cc(Cl)c3)nc(N[C@@H]3CCNC3)nc21 = False

// query Could you verify whether the entry CC(=O)Nc1cc(Cl)cc(Nc2nc(N[C@H]3CCCC[C@H]3N)nc3c2ncn3C(C)C)c1 shows pEC50 of no less than 5?
// result False

// query Does CC(C)n1cnc2c(Nc3cc(N)cc(Cl)c3)nc(N[C@@H]3CCCNC3)nc21 have a reported pEC50 of at least 5?
// result False

----------
Biological target: Dual specificity protein kinase CLK1 (Homo sapiens, UniProt P49759)
Assay: Inhibition of CLK mediated SF3B1 activation in human SK-MEL-2 cells assessed as MDM2-pre mRNA exon skipping after 4 hrs by luciferase reporter gene assay relative to control
Type: cell-based
Conditions: read-out: EC50
Listing of recorded pEC50 by entry.
API: returns pEC50 as number; meaning -log10 of concentration in mol/L.

Answered examples (5):
• COC(=O)c1c(/C(C#N)=C\N)c2ccc(Cl)c(Cl)c2n1C = 5.10
• CC(=O)Nc1cc(Cl)cc(Nc2nc(N[C@@H]3CCCC[C@@H]3N)nc3c2ncn3C(C)C)c1 = 5.14
• CC(C)[C@H](CO)Nc1nc(Nc2cc(N)cc(Cl)c2)c2ncn(C(C)C)c2n1 = 4.92
• CC(C)n1cnc2c(Nc3cccc(Cl)c3)nc(N[C@H]3CCCC[C@H]3N)nc21 = 4.91
• CC(C)n1cnc2c(Nc3cc(N)cc(Cl)c3)nc(N[C@H]3CCCNC3)nc21 = 4.89

// query Record request: pEC50 value, item CC(=O)Nc1cc(Cl)cc(Nc2nc(N[C@@H]3CCCC[C@@H]3N)nc3c2ncn3C(C)C)c1 (racemic)
// result 5.09

// query Could you share which pEC50 value was measured for CCn1cnc2c(Nc3cccc(Cl)c3)nc(N[C@@H]3CCCC[C@H]3N)nc21 ?
// result 5.11

// query Form field: reported pEC50 of CC(C)n1cnc2c(Nc3cc(N)cc(Cl)c3)nc(N[C@@H]3CCCC[C@H]3N)nc21
// result 5.01

// query Find the recorded pEC50 belonging to CC(C)n1cnc2c(Nc3cccc(Cl)c3)nc(N[C@H]3CCCC[C@@H]3N)nc21 and report it.
// result 4.93
